- System: SN12C
- protocolDescription: GI50, drug alone; higher = less potent
- conditionSet: treatment: drug alone; 5 days
Below is a list of entries, each paired with its recorded GI50, drug alone value.

{"columns": ["compound", "tgt", "relation", "GI50, drug alone (µM)"],
 "data": [
  ["Cc1ccccc1-n1c(Cn2ncc3c(N)ncnc32)nc2cccc(C)c2c1=O [PIK-293]", "SN12C", ">", 10],
  ["COc1cc(Nc2ncc(F)c(Nc3ccc4c(n3)NC(=O)C(C)(C)O4)n2)cc(OC)c1OC [R406(free base)]", "SN12C", "=", 3.89],
  ["Cc1cc(CN2CCN(c3c(Br)cnc4[nH]c(-c5ccc(N6CCN(C)CC6)cc5)nc34)CC2)no1", "SN12C", "=", 2.42],
  ["O=C(NC1CCNCC1)c1n[nH]cc1NC(=O)c1c(Cl)cccc1Cl [AT7519]", "SN12C", "=", 0.431],
  ["COc1cc2ncnc(Nc3ccc(F)c(Cl)c3)c2cc1NC(=O)/C=C/CN1CCCCC1", "SN12C", "=", 1.36],
  ["CC(=O)c1c(C)c2cnc(Nc3ccc(N4CCNCC4)cn3)nc2n(C2CCCC2)c1=O.Cl", "SN12C", "=", 7.21],
  ["CCS(=O)(=O)Nc1ccc2c(c1)/C(=C(/Nc1ccc(CN3CCCCC3)cc1)c1ccccc1)C(=O)N2 [Hesperadin]", "SN12C", "=", 0.199],
  ["COc1cc2ncnc(Nc3cccc(Cl)c3)c2cc1OC [AG-1478 (Tyrphostin AG-1478)]", "SN12C", ">", 10],
  ["Cc1[nH]c(/C=C2\\C(=O)Nc3ccccc32)c(C)c1CCC(=O)O [TSU-68]", "SN12C", ">", 10],
  ["COc1ccc(-c2ccc3ncc4c(c3c2)n(-c2ccc(N3CCNCC3)c(C(F)(F)F)c2)c(=O)n4C)cn1.O=C(O)/C=C\\C(=O)O [NVP-BGT226]", "SN12C", "=", 0.0158],
  ["Cc1ccc(Nc2nccc(N(C)c3ccc4c(C)n(C)nc4c3)n2)cc1S(N)(=O)=O.Cl [Pazopanib HCl]", "SN12C", "=", 5.96],
  ["C[C@]1(O)C[C@@H](c2nc(-c3ccc4ccc(-c5ccccc5)nc4c3)c3c(N)nccn32)C1 [Linsitinib (OSI-906)]", "SN12C", ">", 10],
  ["COc1ccc(-c2ccc3c(N4CCOCC4)nc(N4C[C@@H](C)O[C@@H](C)C4)nc3n2)cc1CO", "SN12C", "=", 1.36],
  ["Cl.N=C(N)NC(=N)NCCc1ccccc1 [Phenformin hydrochloride]", "SN12C", "=", 5.25],
  ["COc1ccc2c(c1OC)N=C(NC(=O)c1cccnc1)N1CCN=C21 [PIK-90]", "SN12C", "=", 3.41]
]}

* * *

- Test system: UO-31
- protocolDescription: AUC of dose-response viability curve, drug + dasatinib, normalised to DMSO (arbitrary (AUC of normalised viability)); higher = less growth inhibition
- conditionSet: treatment: drug + dasatinib (fixed dose, not stated); 5 days
Threshold-based label: AUC of dose-response viability curve under 3 gives y, AUC of dose-response viability curve not under 3 gives n.

{"columns": ["molecule", "assignedClass"],
 "data": [
  ["CC(=O)c1c(C)c2cnc(Nc3ccc(N4CCNCC4)cn3)nc2n(C2CCCC2)c1=O.Cl + Cc1nc(Nc2ncc(C(=O)Nc3c(C)cccc3Cl)s2)cc(N2CCN(CCO)CC2)n1 [dasatinib]", "y"],
  ["Cc1cc(Nc2cc(N3CCN(C)CC3)nc(Sc3ccc(NC(=O)C4CC4)cc3)n2)n[nH]1 [VX-680 (MK-0457, Tozasertib)] + Cc1nc(Nc2ncc(C(=O)Nc3c(C)cccc3Cl)s2)cc(N2CCN(CCO)CC2)n1 [dasatinib]", "y"],
  ["Nc1cccc2c1CN(C1CCC(=O)NC1=O)C2=O (stereo not given) [Lenalidomide (Revlimid)] + Cc1nc(Nc2ncc(C(=O)Nc3c(C)cccc3Cl)s2)cc(N2CCN(CCO)CC2)n1 [dasatinib]", "n"],
  ["c1ccc2c(-c3cnn4cc(-c5ccc(N6CCNCC6)cc5)cnc34)ccnc2c1 + Cc1nc(Nc2ncc(C(=O)Nc3c(C)cccc3Cl)s2)cc(N2CCN(CCO)CC2)n1 [dasatinib]", "n"],
  ["O=C(NCc1ccccc1)c1csc(Nc2ccncn2)n1 [Thiazovivin] + Cc1nc(Nc2ncc(C(=O)Nc3c(C)cccc3Cl)s2)cc(N2CCN(CCO)CC2)n1 [dasatinib]", "y"],
  ["COCC[n+]1c2c(n(Cc3cnccn3)c1C)C(=O)c1ccccc1C2=O [YM155] + Cc1nc(Nc2ncc(C(=O)Nc3c(C)cccc3Cl)s2)cc(N2CCN(CCO)CC2)n1 [dasatinib]", "y"],
  ["CC(=O)NCC(=O)N1[C@H]2CC[C@H]1c1cc(Nc3ncc(C(F)(F)F)c(NC4CCC4)n3)ccc12 + Cc1nc(Nc2ncc(C(=O)Nc3c(C)cccc3Cl)s2)cc(N2CCN(CCO)CC2)n1 [dasatinib]", "y"],
  ["O=C(NC1CCNCC1)c1n[nH]cc1NC(=O)c1c(Cl)cccc1Cl [AT7519] + Cc1nc(Nc2ncc(C(=O)Nc3c(C)cccc3Cl)s2)cc(N2CCN(CCO)CC2)n1 [dasatinib]", "y"],
  ["COc1cc(Nc2ncc(F)c(Nc3ccc4c(n3)NC(=O)C(C)(C)O4)n2)cc(OC)c1OC.O=S(=O)(O)c1ccccc1 [R406] + Cc1nc(Nc2ncc(C(=O)Nc3c(C)cccc3Cl)s2)cc(N2CCN(CCO)CC2)n1 [dasatinib]", "y"],
  ["OCc1ccc(-c2ccc(-c3ccc(CO)s3)o2)s1 + Cc1nc(Nc2ncc(C(=O)Nc3c(C)cccc3Cl)s2)cc(N2CCN(CCO)CC2)n1 [dasatinib]", "n"]
]}

All figures here come from the supplement of paper PMC8149375.
